This listing pairs binders with measured EC50.
# TEST SYSTEM: T1, Prostate specific membrane antigen (PSMA) (human, UniProt Q04609 1-750)
# T1 construct: whole, on cells; The background says that PSMA is a homodimer when enzymatically active; also called glutamate carboxypeptidase II; GCPII
# T1 sequence (Q04609 whole entry): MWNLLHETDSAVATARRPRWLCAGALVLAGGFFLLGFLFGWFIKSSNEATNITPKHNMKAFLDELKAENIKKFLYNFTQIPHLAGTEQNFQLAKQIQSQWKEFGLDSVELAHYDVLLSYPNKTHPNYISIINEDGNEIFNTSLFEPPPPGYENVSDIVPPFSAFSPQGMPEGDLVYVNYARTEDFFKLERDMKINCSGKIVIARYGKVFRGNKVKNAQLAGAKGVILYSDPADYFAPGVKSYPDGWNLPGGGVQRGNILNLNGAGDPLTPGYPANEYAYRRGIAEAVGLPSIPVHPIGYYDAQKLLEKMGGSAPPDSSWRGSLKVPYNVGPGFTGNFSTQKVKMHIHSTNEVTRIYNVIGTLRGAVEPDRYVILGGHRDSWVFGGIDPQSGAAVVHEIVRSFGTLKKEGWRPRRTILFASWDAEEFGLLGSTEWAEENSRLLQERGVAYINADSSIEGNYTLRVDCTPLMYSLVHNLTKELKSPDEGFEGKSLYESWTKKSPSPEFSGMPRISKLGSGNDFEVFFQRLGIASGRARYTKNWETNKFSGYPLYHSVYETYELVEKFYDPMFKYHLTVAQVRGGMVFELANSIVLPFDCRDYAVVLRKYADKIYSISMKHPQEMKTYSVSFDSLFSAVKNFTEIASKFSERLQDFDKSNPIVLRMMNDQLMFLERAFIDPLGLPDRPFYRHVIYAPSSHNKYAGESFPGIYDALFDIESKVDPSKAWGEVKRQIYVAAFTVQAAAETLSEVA
# ASSAY NOTES: flow cytometry on LNCAP cells, FITC anti-human IgG
Quick note: give the figure in µg/mL, leave out the unit.

| BINDER | DISPLAY UNIT | READOUT VALUE |
| --- | --- | --- |
| 3F11-var 16 (antibody, human IgG1, kappa, V domains shown, Expressed from pXC-IgG1zadeltaK and pXC-Kappa vectors) VH: QVQLVQSGAEVKKPGASVKVSCKASGYTFTYFDINWLRQAPGQGLEWMGGISPGDSNVNYAQKFQGRVTLTIDTSTSTAYMELSSLRSEDTAVYYCARDGNFPYYAMDSWGQGTLVTVSS VL: DIVMTQSPLSLPVTPGEPASISCRSSQSLVHSSGQTYLHWYQQKPGQSPQLLIYTVSNRASGVPDRFSGSGSGTDFTLKISRVEAEDVGTYYCSQSTHVPTFGGGTKVEIKR | µg/mL | 0.248 |
| 3F11-var 4 (antibody, human IgG1, kappa, V domains shown, Expressed from pXC-IgG1zadeltaK and pXC-Kappa vectors) VH: QVQLVQSGAEVKKPGASVKVSCKASGYTFTYFDINWLRQAPGQGLEWMGGISPGDSNVNYAQKFQGRVTLTIDTSTSTAYMELSSLRSEDTAVYYCARDGNFPYYAMDSWGQGTLVTVSS VL: DIVMTQSPLSLPVTPGEPASISCRSSQSLVHSNGNTYLHWFLQKPGQSPQLLIYTVSNRFSGVPDRFSGSGSGTDFTLKISRVEAEDVGVYFCSQSTHVPTFGGGTKVEIKR | µg/mL | 0.373 |
| 3F11-var 15 (antibody, human IgG1, kappa, V domains shown, Expressed from pXC-IgG1zadeltaK and pXC-Kappa vectors) VH: QVQLVQSGAEVKKPGASVKVSCKASGYTFTYFDINWLRQAPGQGLEWMGGISPGDGNVNYAQKFQGRVTLTIDTSTSTAYMELSSLRSEDTAVYYCARDGNFPYYAMDSWGQGTLVTVSS VL: DIVMTQSPLSLPVTPGEPASISCRSSQSLVHSSGQTYLHWYQQKPGQSPQLLIYTVSNRASGVPDRFSGSGSGTDFTLKISRVEAEDVGTYYCSQSTHVPTFGGGTKVEIKR | µg/mL | 0.244 |
| 3F11-var 6 (antibody, human IgG1, kappa, V domains shown, Expressed from pXC-IgG1zadeltaK and pXC-Kappa vectors) VH: QVQLVQSGAEVKKPGASVKVSCKASGYTFTYFDINWLRQAPGQGLEWMGGISPGDGNTNYAQKFQGRVTLTIDTSTSTAYMELSSLRSEDTAVYYCARDGNFPYYAMDSWGQGTLVTVSS VL: DIVMTQSPLSLPVTPGEPASISCRSSQSLVHSNGQTYLHWYLQKPGQSPQLLIYTVSNRFSGVPDRFSGSGSGTDFTLKISRVEAEDVGVYYCSQSTHVPTFGGGTKVEIKR | µg/mL | 0.219 |
| 3F11-var 8 (antibody, human IgG1, kappa, V domains shown, Expressed from pXC-IgG1zadeltaK and pXC-Kappa vectors) VH: QVQLVQSGAEVKKPGASVKVSCKASGYTFTYFDINWLRQAPGQGLEWMGGISPGDSNVNYAQKFQGRVTLTIDTSTSTAYMELSSLRSEDTAVYYCARDGNFPYYAMDSWGQGTLVTVSS VL: DIVMTQSPLSLPVTPGEPASISCRSSQSLVHSNGQTYLHWYLQKPGQSPQLLIYTVSNRFSGVPDRFSGSGSGTDFTLKISRVEAEDVGVYYCSQSTHVPTFGGGTKVEIKR | µg/mL | 0.204 |
| 3F11-var 13 (antibody, human IgG1, kappa, V domains shown, Expressed from pXC-IgG1zadeltaK and pXC-Kappa vectors) VH: QVQLVQSGAEVKKPGASVKVSCKASGYTFTYFDINWLRQAPGQGLEWMGGISPGDGNTNYNENFKGRVTLTIDKSTSTAYMELSSLRSEDTAVYFCARDGNFPYYAMDSWGQGTLVTVSS VL: DIVMTQSPLSLPVTPGEPASISCRSSQSLVHSSGQTYLHWYQQKPGQSPQLLIYTVSNRASGVPDRFSGSGSGTDFTLKISRVEAEDVGTYYCSQSTHVPTFGGGTKVEIKR | µg/mL | 0.25 |
| 3F11-var 5 (antibody, human IgG1, kappa, V domains shown, Expressed from pXC-IgG1zadeltaK and pXC-Kappa vectors) VH: QVQLVQSGAEVKKPGASVKVSCKASGYTFTYFDINWLRQAPGQGLEWMGGISPGDGNTNYNENFKGRVTLTIDKSTSTAYMELSSLRSEDTAVYFCARDGNFPYYAMDSWGQGTLVTVSS VL: DIVMTQSPLSLPVTPGEPASISCRSSQSLVHSNGQTYLHWYLQKPGQSPQLLIYTVSNRFSGVPDRFSGSGSGTDFTLKISRVEAEDVGVYYCSQSTHVPTFGGGTKVEIKR | µg/mL | 0.304 |
| 3F11-var 10 (antibody, human IgG1, kappa, V domains shown, Expressed from pXC-IgG1zadeltaK and pXC-Kappa vectors) VH: QVQLVQSGAEVKKPGASVKVSCKASGYTFTYFDINWLRQAPGQGLEWMGGISPGDGNTNYAQKFQGRVTLTIDTSTSTAYMELSSLRSEDTAVYYCARDGNFPYYAMDSWGQGTLVTVSS VL: DIVMTQSPLSLPVTPGEPASISCRSSQSLVHSSGQTYLHWYLQKPGQSPQLLIYTVSNRFSGVPDRFSGSGSGTDFTLKISRVEAEDVGVYYCSQSTHVPTFGGGTKVEIKR | µg/mL | 0.284 |

[Q] Any idea what EC50 was measured for 3F11-var 11 (antibody, human IgG1, kappa, V domains shown, Expressed from pXC-IgG1zadeltaK and pXC-Kappa vectors) VH: QVQLVQSGAEVKKPGASVKVSCKASGYTFTYFDINWLRQAPGQGLEWMGGISPGDGNVNYAQKFQGRVTLTIDTSTSTAYMELSSLRSEDTAVYYCARDGNFPYYAMDSWGQGTLVTVSS VL: DIVMTQSPLSLPVTPGEPASISCRSSQSLVHSSGQTYLHWYLQKPGQSPQLLIYTVSNRFSGVPDRFSGSGSGTDFTLKISRVEAEDVGVYYCSQSTHVPTFGGGTKVEIKR ?
[A] 0.339

[Q] Any idea what EC50 was measured for 3F11-var 2 (antibody, human IgG1, kappa, V domains shown, Expressed from pXC-IgG1zadeltaK and pXC-Kappa vectors) VH: QVQLVQSGAEVKKPGASVKVSCKASGYTFTYFDINWLRQAPGQGLEWMGGISPGDGNTNYAQKFQGRVTLTIDTSTSTAYMELSSLRSEDTAVYYCARDGNFPYYAMDSWGQGTLVTVSS VL: DIVMTQSPLSLPVTPGEPASISCRSSQSLVHSNGNTYLHWFLQKPGQSPQLLIYTVSNRFSGVPDRFSGSGSGTDFTLKISRVEAEDVGVYFCSQSTHVPTFGGGTKVEIKR ?
[A] 0.273
